Data provenance is paper PMC3407194.

Molecular target: T1, AMV RT (avian myeloblastosis virus, UniProt Q83133;Q83133 6-577;6-864)
T1 sequence 1: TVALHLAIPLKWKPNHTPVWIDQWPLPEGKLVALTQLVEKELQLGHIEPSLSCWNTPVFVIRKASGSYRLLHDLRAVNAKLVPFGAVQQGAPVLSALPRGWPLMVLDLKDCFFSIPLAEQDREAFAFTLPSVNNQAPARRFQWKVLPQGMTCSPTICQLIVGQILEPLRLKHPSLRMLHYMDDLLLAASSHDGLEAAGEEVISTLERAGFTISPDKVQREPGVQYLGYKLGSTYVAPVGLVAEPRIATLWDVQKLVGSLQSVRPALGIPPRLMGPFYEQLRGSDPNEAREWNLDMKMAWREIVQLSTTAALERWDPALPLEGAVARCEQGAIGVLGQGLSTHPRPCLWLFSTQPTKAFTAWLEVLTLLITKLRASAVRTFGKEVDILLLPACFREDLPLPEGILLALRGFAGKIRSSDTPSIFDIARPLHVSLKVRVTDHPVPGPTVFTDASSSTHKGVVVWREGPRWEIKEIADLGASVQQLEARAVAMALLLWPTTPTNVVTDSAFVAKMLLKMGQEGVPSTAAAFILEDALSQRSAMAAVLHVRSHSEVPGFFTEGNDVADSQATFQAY
T1 sequence 2: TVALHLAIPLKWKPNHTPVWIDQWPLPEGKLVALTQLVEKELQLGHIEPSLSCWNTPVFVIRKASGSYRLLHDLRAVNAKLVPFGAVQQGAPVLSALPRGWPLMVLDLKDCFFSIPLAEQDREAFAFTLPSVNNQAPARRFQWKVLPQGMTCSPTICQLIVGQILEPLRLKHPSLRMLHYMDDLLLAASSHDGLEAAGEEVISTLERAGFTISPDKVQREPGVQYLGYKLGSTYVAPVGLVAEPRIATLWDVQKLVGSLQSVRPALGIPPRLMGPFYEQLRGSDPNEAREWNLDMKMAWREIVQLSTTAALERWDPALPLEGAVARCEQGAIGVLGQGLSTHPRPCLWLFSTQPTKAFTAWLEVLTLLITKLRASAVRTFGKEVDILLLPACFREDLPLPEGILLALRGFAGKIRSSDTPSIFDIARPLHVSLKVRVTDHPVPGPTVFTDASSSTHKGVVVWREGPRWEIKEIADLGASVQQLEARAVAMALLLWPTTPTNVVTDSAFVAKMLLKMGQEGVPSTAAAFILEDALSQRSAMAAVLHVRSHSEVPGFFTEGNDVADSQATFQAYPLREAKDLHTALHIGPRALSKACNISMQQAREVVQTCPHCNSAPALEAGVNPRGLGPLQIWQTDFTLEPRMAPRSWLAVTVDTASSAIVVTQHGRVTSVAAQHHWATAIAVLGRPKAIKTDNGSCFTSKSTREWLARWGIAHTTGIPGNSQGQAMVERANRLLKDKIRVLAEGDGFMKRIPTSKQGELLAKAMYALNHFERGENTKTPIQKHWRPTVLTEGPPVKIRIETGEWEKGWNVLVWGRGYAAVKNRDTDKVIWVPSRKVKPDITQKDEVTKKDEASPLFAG
Assay: primer extension with trap; 6 mM Mg2+; Primer extension: 50 mM Tris-HCl pH 8.0, 80 mM KCl, 6 mM MgCl2, 1 mM DTT, 0.1 mg/ml BSA, room temperature, 1 nM duplex; filter binding: Tris-HCl pH 8.0, 80 mM KCl, 1 mM DTT, without Mg2+ (wt) or 6 mM Mg2+ (E478Q), room temperature, 5 nM hybrid (Table 1 units nM inferred)
Conditions: protein: commercial; copies: 1;1; label: 5'-32P primer; 41 nt primer on 45 nt template, 5' overhang 4 nt (template)
Assay readout: pKd
One number for each entry, as −log10 of the molar value.

// below: answered binders
{"columns": ["Binder", "pKd"],
 "data": [
  ["AMV DNA PPT (dsDNA) DNA 1: GCCTGCAGGTCGACTCTAGAGCTTTTGCATAGGGAGGGGGA DNA 2: CATTTCCCCCTCCCTATGCAAAAGCTCTAGAGTCGACCTGCAGGC", 9.00],
  ["MuLV DNA PPT (dsDNA) DNA 1: GCCTGCAGGTCGACTCTAGATAGTCTCCAGAAAAAGGGGGG DNA 2: CATTCCCCCCTTTTTCTGGAGACTATCTAGAGTCGACCTGCAGGC", 8.59]
]}

Give pKd for each of the items listed below.
1. AMV R12-2 (dsDNA) DNA 1: GCCTGCAGGTCGACTCTAGATCACAAAGACCGGCGGGGTAA DNA 2: ATCTTTACCCCGCCGGTCTTTGTGATCTAGAGTCGACCTGCAGGC
2. TY3 DNA PPT (dsDNA) DNA 1: GCCTGCAGGTCGACTCTAGAGACAACCCTGAGAGAGAGGAA DNA 2: CATCTTCCTCTCTCTCAGGGTTGTCTCTAGAGTCGACCTGCAGGC
3. AMV R12-3 (dsDNA) DNA 1: GCCTGCAGGTCGACTCTAGACGGGCAGTGTAATGAAGGCCA DNA 2: CTTCTGGCCTTCATTACACTGCCCGTCTAGAGTCGACCTGCAGGC
4. HIV DNA PPT (41/45) (dsDNA) DNA 1: GCCTGCAGGTCGACTCTAGACTTTTTAAAAGAAAAGGGGGG DNA 2: CAGTCCCCCCTTTTCTTTTAAAAAGTCTAGAGTCGACCTGCAGGC

8.46
7.92
8.17
8.68
